# Test details: Pharmacokinetics in rats
# Type: in vivo
# Experimental parameters: rat, plasma, iv, 1 mg/kg, rats, IV 1 mg/kg, Rat -1
Test readout: Cmax (µg/mL)
Give bare numbers, in µg/mL.

Exercise: Consider the compound shown here: Nc1nc(N[C@H]2C[C@@H]3CC[C@H]2C3)sc1C(=O)c1ccccc1[N+](=O)[O-] (relative stereo) What is its recorded Cmax?
Key: 0.385

###

# Tested on: HCCC1937
# Test details: Growth inhibition (cell counting, day 5)
# Format: cell-based
# Experimental parameters: Breast
Test readout: IC50 (nM)
Numbers only, in nM.

Exercise: Consider the compound shown here: Nc1nc(N[C@H]2C[C@@H]3CC[C@H]2C3)sc1C(=O)c1ccccc1[N+](=O)[O-] (relative stereo) [MC180295] What is its recorded IC50?
Key: 124

###

# Test details: Pharmacokinetics in rats
# Format: in vivo
# Experimental parameters: rat, plasma, iv, 1 mg/kg, rats, IV 1 mg/kg, Rat -1; read-out: T1/2 (converted)
Test readout: half-life (h)
Numbers only, in h.

Exercise: Consider the compound shown here: Nc1nc(N[C@H]2C[C@@H]3CC[C@H]2C3)sc1C(=O)c1ccccc1[N+](=O)[O-] (relative stereo) [MC180295] What is its recorded half-life?
Key: 17.9

###

# Test details: Pharmacokinetics in mice
# Assay type: in vivo
# Experimental parameters: mouse, plasma, Oral - 2.5mg/kg vs IV - 1mg/kg, as fraction
Test readout: bioavailability (%)
Answers are plain numbers, in %.

Exercise: Consider the compound shown here: Nc1nc(N[C@H]2C[C@@H]3CC[C@H]2C3)sc1C(=O)c1ccccc1[N+](=O)[O-] (relative stereo) What is its recorded bioavailability?
Key: 26

###

# Tgt: CDK8/cyclin C (Homo sapiens)
# Sequence (P49336 whole entry): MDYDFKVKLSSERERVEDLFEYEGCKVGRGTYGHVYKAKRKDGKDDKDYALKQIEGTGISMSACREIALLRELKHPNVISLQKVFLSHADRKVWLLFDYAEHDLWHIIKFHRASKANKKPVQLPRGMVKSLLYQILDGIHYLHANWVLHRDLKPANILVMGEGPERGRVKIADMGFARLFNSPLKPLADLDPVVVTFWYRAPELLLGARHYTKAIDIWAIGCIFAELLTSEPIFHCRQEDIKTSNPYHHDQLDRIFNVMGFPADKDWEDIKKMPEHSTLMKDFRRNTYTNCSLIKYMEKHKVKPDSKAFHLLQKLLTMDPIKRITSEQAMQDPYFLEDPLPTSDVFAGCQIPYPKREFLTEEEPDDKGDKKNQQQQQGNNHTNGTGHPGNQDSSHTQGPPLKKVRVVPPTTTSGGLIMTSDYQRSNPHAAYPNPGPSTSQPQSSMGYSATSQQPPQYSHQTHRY
# Sequence (P24863 whole entry partner): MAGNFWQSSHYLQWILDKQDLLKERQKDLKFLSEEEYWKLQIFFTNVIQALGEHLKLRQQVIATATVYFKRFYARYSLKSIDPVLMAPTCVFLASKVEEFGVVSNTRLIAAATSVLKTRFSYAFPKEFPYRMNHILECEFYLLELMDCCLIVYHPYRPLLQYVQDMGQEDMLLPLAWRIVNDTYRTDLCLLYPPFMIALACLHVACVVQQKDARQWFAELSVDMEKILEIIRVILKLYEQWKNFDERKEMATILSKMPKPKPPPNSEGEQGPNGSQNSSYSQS
# Test details: CDK enzymatic assay
# Experimental parameters: Fig. 1A
Test readout: pIC50
One number for each entry, as −log10 of the molar value.

Exercise: Consider the molecule shown here: Nc1nc(N[C@H]2C[C@@H]3CC[C@H]2C3)sc1C(=O)c1ccccc1[N+](=O)[O-] (relative stereo) What is its recorded pIC50?
Key: 6.30

###

# Test details: Pharmacokinetics in rats
# Format: in vivo
# Experimental parameters: rat, plasma, iv, 1 mg/kg, rats, IV 1 mg/kg, Mean; read-out: T1/2 (converted)
Test readout: half-life (h)
Numbers only, in h.

Exercise: Consider the compound shown here: Nc1nc(N[C@H]2C[C@@H]3CC[C@H]2C3)sc1C(=O)c1ccccc1[N+](=O)[O-] (relative stereo) What is its recorded half-life?
Key: 14

###

# Test details: Pharmacokinetics in mice
# Format: in vivo
# Experimental parameters: mouse, plasma, IP 10 mg/kg, read-out: AUC 0-inf_obs
Test readout: AUC(0-inf) (ng·h/mL)
Numbers only, in ng·h/mL.

Exercise: Consider the molecule shown here: Nc1nc(N[C@H]2C[C@@H]3CC[C@H]2C3)sc1C(=O)c1ccccc1[N+](=O)[O-] (relative stereo) What is its recorded AUC(0-inf)?
Key: 3840

###

# Test system: J-Tag
# Test details: Growth inhibition (cell counting, day 5)
# Assay type: cell-based
# Experimental parameters: Leukemia
Test readout: IC50 (nM)
Give bare numbers, in nM.

Exercise: Consider the molecule shown here: Nc1nc(N[C@H]2C[C@@H]3CC[C@H]2C3)sc1C(=O)c1ccccc1[N+](=O)[O-] (relative stereo) What is its recorded IC50?
Key: 112

###

# Test system: UC3
# Test details: Growth inhibition (cell counting, day 5)
# Format: cell-based
# Experimental parameters: Bladder
# Protocol: The live-cell assay for GFP reactivation in YB5 cells was done as previously described. Cells were treated with a single dose of drug 24 h after seeding at low density, and GFP fluorescence measured in a Millipore Guava flow cytometer (EMD, Millipore) instrument, or by imaging in a Cytation instrument (Agilent). […] The cells were collected on day 5 by trypsin, suspended in medium, mixed with trypan blue (Thermo Fisher Scientific) (1:1 ratio), and counted using a LUNA II automated cell counter. […]
Test readout: IC50 (nM)
Give bare numbers, in nM.

Exercise: Consider the molecule shown here: Nc1nc(N[C@H]2C[C@@H]3CC[C@H]2C3)sc1C(=O)c1ccccc1[N+](=O)[O-] (relative stereo) [MC180295] What is its recorded IC50?
Key: 101

###

# Test details: Pharmacokinetics in mice
# Assay type: in vivo
# Experimental parameters: mouse, plasma, IP 10 mg/kg
Test readout: Tmax (min)
Answers are plain numbers, in min.

Exercise: Consider the compound shown here: Nc1nc(N[C@H]2C[C@@H]3CC[C@H]2C3)sc1C(=O)c1ccccc1[N+](=O)[O-] (relative stereo) What is its recorded Tmax?
Key: 10.2

###

# Test system: HT29
# Test details: Growth inhibition (cell counting, day 5)
# Assay type: cell-based
# Experimental parameters: Homo sapiens, HT-29; Colon
Test readout: IC50 (nM)
Numbers only, in nM.

Exercise: Consider the molecule shown here: Nc1nc(N[C@H]2C[C@@H]3CC[C@H]2C3)sc1C(=O)c1ccccc1[N+](=O)[O-] (relative stereo) What is its recorded IC50?
Key: 75.6

###

# Test details: Pharmacokinetics in mice
# Format: in vivo
# Experimental parameters: mouse, plasma, iv, 1 mg/kg, IV dose of 1 mg/kg, read-out: half-life (converted)
# Description: Fig. 1 MC180295 enzymatic/growth inhibition and pharmacokinetics. A In vitro activity (IC50 values) of MC180295 against a panel of CDKs. B MC180295 IC50 values against 46 cell lines from 6 different cancer types. C Pharmacokinetic analyses after oral or IV administration of low-dose (1 mg/kg IV or 2.5 mg/kg oral) MC180295 to mice. D Pharmacokinetic analyses after IP administration of 10 mg/kg MC180295 to mice. We next studied the pharmacokinetics (PK) of MC180295.
Test readout: half-life (min)
Give bare numbers, in min.

Exercise: Consider the compound shown here: Nc1nc(N[C@H]2C[C@@H]3CC[C@H]2C3)sc1C(=O)c1ccccc1[N+](=O)[O-] (relative stereo) [MC180295] What is its recorded half-life?
Key: 51.6

###

# Tgt: CDK9/cyclin T (Homo sapiens)
# Sequence (O60563 whole entry): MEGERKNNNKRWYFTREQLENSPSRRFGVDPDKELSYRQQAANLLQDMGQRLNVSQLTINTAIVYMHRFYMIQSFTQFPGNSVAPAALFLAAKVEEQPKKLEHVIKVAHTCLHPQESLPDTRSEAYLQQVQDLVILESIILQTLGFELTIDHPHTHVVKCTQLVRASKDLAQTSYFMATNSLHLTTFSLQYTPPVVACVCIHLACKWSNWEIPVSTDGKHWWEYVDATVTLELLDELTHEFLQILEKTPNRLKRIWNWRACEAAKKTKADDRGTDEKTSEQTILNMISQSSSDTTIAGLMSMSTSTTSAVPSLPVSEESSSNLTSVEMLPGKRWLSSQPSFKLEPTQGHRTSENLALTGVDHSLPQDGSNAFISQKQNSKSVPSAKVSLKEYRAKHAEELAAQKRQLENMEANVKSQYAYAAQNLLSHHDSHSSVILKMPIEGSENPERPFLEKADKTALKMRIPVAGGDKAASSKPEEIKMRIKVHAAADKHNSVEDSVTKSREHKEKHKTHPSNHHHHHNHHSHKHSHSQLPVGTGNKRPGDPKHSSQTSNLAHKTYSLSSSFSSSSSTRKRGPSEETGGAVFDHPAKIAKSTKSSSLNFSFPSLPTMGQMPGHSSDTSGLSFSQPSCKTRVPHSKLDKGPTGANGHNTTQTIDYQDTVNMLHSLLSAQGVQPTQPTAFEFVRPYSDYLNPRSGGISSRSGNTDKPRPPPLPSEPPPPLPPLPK
# Sequence (P50750 whole entry): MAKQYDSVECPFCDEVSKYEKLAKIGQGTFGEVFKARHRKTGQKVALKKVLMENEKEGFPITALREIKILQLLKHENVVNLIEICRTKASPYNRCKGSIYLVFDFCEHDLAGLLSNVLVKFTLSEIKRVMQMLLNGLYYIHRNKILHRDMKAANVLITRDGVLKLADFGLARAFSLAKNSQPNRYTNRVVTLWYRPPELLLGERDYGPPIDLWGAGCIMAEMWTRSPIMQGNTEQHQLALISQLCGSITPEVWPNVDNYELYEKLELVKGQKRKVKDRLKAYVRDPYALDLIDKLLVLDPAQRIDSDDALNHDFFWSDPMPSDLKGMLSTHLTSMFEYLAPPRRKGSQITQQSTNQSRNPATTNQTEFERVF
# Test details: CDK9/cyclin T inhibition, two independent assays
# Experimental parameters: based on two independent assays; read-out: IC50 toward CDK9/cyclin T
Test readout: IC50

Exercise: Which IC50 is reported with CDK9/cyclin T (Homo sapiens) for this entry: Nc1nc(N[C@H]2C[C@@H]3CC[C@H]2C3)sc1C(=O)c1ccccc1[N+](=O)[O-] (relative stereo) [MC180295] ?
Key: 3 to 12 nM

###

# Test details: Rat hepatocyte stability assay
# Type: in vitro ADME
# Set-up: dose or concentration left out as unconfirmed
# Experimental parameters: cryopreserved primary hepatocytes; Rat (Sprague-Dawley) hepatocytes, male
Kindly supply the reported half-life values for the records listed here.
Numbers only, in min.

INSERT INTO results (molecule, test_readout, reading) VALUES
  ('Nc1nc(N[C@@H]2C[C@H]3CC[C@@H]2C3)sc1C(=O)c1ccccc1[N+](=O)[O-] [MC180379]', 'half-life', 4.1);

From here, focus on the item given below.
Exercise: Consider the molecule shown here: Nc1nc(N[C@H]2C[C@@H]3CC[C@H]2C3)sc1C(=O)c1ccccc1[N+](=O)[O-] [MC180380] What is its recorded half-life?
Key: 11.7

###

# Tested on: BT549
# Test details: Growth inhibition (cell counting, day 5)
# Assay type: cell-based
# Experimental parameters: Homo sapiens, BT-549; Breast
Test readout: IC50 (nM)
Numbers only, in nM.

Exercise: Consider the molecule shown here: Nc1nc(N[C@H]2C[C@@H]3CC[C@H]2C3)sc1C(=O)c1ccccc1[N+](=O)[O-] (relative stereo) What is its recorded IC50?
Key: 290

###

# System: A375
# Test details: Growth inhibition (cell counting, day 5)
# Format: cell-based
# Experimental parameters: Homo sapiens, A-375; Melanoma
Test readout: pIC50
Answers are plain numbers, as −log10 of the molar value.

Exercise: Consider the molecule shown here: Nc1nc(N[C@H]2C[C@@H]3CC[C@H]2C3)sc1C(=O)c1ccccc1[N+](=O)[O-] (relative stereo) What is its recorded pIC50?
Key: 6.72

###

# Test system: MALME-3M
# Test details: Growth inhibition (cell counting, day 5)
# Type: cell-based
# Experimental parameters: Homo sapiens, Melanoma
# Description: The live-cell assay for GFP reactivation in YB5 cells was done as previously described. Cells were treated with a single dose of drug 24 h after seeding at low density, and GFP fluorescence measured in a Millipore Guava flow cytometer (EMD, Millipore) instrument, or by imaging in a Cytation instrument (Agilent). […] The cells were collected on day 5 by trypsin, suspended in medium, mixed with trypan blue (Thermo Fisher Scientific) (1:1 ratio), and counted using a LUNA II automated cell counter. […]
Test readout: pIC50
Give bare numbers, as −log10 of the molar value.

Exercise: Consider the compound shown here: Nc1nc(N[C@H]2C[C@@H]3CC[C@H]2C3)sc1C(=O)c1ccccc1[N+](=O)[O-] (relative stereo) What is its recorded pIC50?
Key: 6.46
